B1: Twister Ribozyme (parent)
chain: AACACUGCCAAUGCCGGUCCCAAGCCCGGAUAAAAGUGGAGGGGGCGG

Variants of: B1
Measurement protocol: self-cleavage, relative activity (ratio to wild type); higher = more cleavage; co-transcriptional
Parameter measured: self-cleavage

{"columns": ["Mut", "Quantitative result"],
 "data": [
  ["G24C U31A", 0.0517],
  ["G7C C15G", 0.0181],
  ["A30G G41U", 0.772],
  ["G16A G48C", 1.08],
  ["A11U G44U", 1.07],
  ["C14U C19G", 0.518],
  ["C27A A33C", 0.245],
  ["C8U G24C", 0.0664],
  ["C14U G44C", 0.983],
  ["U18C C26A", 0.0527],
  ["A35C G36U", 0.477],
  ["A4C G41A", 0.0502],
  ["G28U G48U", 0.809],
  ["A22G A34U", 0.096],
  ["G42C G44C", 0.17],
  ["U18G A33G", 0.0866],
  ["C19G A32C", 0.386],
  ["U12G C27G", 0.136],
  ["A34C U37C", 0.116],
  ["A1C G7C", 0.121],
  ["U12A G28A", 0.912],
  ["C5U A11U", 0.564]
]}
